Numbers sourced from patent US9512075B2.

System: Staphylococcus aureus Smith strain
protocolDetails: MIC for Staphylococcus aureus Smith strain
Format: cell-based
experimentalContext: Smith strain, regular bouillon medium, 37° C. overnight, turbidity, read-out: MIC Straphyrococcus aureus Smith
assayReadout: MIC (µg/mL)
Write down the numeric answer in µg/mL and omit the unit.

CCCCCCCCCCOCC(O)=C1C(=O)N(C(=O)Nc2ccccc2)c2ccc(F)cc21 | 0.25
CCCCCCCCCC(=O)N1C(=O)C(=C(C)O)c2ccccc21 | 2
CCCCCCCCCC(O)=C1C(=O)N(C(=O)Nc2ccc(OC(F)(F)F)cc2)c2ccccc21 | 256
CCCCCCCCCCOCC(O)=C1C(=O)N(C(C)=O)c2ccc(Br)cc21 | 0.5

[ask] Answer with the recorded MIC for the molecule listed here: CCCCC1CCC(C(O)=C2C(=O)N(C(=O)c3ccccc3)c3ccccc32)CC1 (stereo not drawn)
[reply] 1

[ask] Answer with the recorded MIC for the molecule listed here: `CCCCCCCCCC(O)=C1C(=O)N(C(=O)Nc2ccccc2)c2ccc(Br)cc21`
[reply] 256

[ask] Answer with the recorded MIC for the molecule listed here: CCCCCCCCNC(=O)c1c(O)c2ccccc2oc1=O [B020, 3-(octylaminocarbonyl)-4-hydroxycoumarin]
[reply] 8

[ask] Answer with the recorded MIC for the molecule listed here: CCCCCCCCCC(=O)c1c(O)c2cc(C)ccc2oc1=O [B012, 3-decanoyl-6-methyl-4-hydroxycoumarin]
[reply] 0.5

[ask] Answer with the recorded MIC for the molecule listed here: `CCCCCCCCCCOCC(=O)c1c(O)c2cc(C)ccc2oc1=O`
[reply] 4

[ask] Answer with the recorded MIC for the molecule listed here: CCCCCCCCCCOC(C)C(O)=C1C(=O)N(C(=O)NCCCC)c2ccccc21 (stereo not drawn)
[reply] 1

[ask] Answer with the recorded MIC for the molecule listed here: `CCCCCCCCCC(O)=C1C(=O)N(C(=O)Nc2ccccc2)c2ccc(F)cc21`
[reply] 0.25

[ask] Answer with the recorded MIC for the molecule listed here: `CCCCCCCCOCC(O)=C1C(=O)N(C(C)=O)c2ccccc21`
[reply] 1

----------
Test system: Staphylococcus aureus Smith strain
protocolDetails: MIC for Staphylococcus aureus Smith strain
Assay type: cell-based
experimentalContext: read-out: MIC Straphyrococcus aureus Smith
Kindly apply the following: condition met if MIC is less than 2 mg/L, condition not met in every other case.

Below are worked cases with known answers.
CCCCCCCCNC(=O)N1C(=O)C(=C(O)c2ccccc2)c2ccccc21 | condition met
CCCCCCCCCCSCC(=O)c1c(O)c2ccccc2oc1=O | condition met
CCCCCCCCCCOCC(O)=C1C(=O)N(C(C)=O)c2cc(Cl)ccc21 | condition met
CCCCCCCCCCSCC(=O)c1c(O)c2cc(F)ccc2oc1=O | condition met
CCCCCCCCCC(=O)c1c(O)c2cc(F)ccc2oc1=O [B004, 3-decanoyl-6-fluoro-4-hydroxycoumarin] | condition met
CCCCCCCCCC(=O)N1C(=O)C(=C(O)c2ccccc2O)c2ccccc21 | condition not met

[ask] Lab note: MIC threshold 2 mg/L. Does this compound come in strictly under it? `CCCCCCCCCC(=O)N1C(=O)C(=C(O)c2ccc(Cl)cc2)c2ccccc21`
[reply] condition met

[ask] Lab note: MIC threshold 2 mg/L. Does this compound come in strictly under it? CCCCC1CCC(C(=O)c2c(O)c3cc(F)ccc3oc2=O)CC1 (stereo not drawn)
[reply] condition met

----------
Listed next: entries and their corresponding MIC.
Test system: Escherichia coli BE1121 strain
protocolDetails: MIC for Escherichia coli BE1121 strain
Format: cell-based
experimentalContext: Escherichia coli, BE1121STRAIN; BE1121 strain; regular bouillon medium, 37° C. overnight, turbidity; read-out: MIC Escherichia coli BE1121
Write down the numeric answer in mg/L and omit the unit.

CCCCCCCCCC(=O)N1C(=O)C(=C(O)c2ccc(OC)cc2)c2ccccc21 [A062] | 256
CCCCCCCCCC(O)=C1C(=O)N(C(=O)Nc2ccccc2C(F)(F)F)c2ccccc21 [A054] | 256
CCCCCCCCCCOCC(=O)c1c(O)c2cc(F)ccc2oc1=O [B019] | 256
CCCCC1CCC(C(O)=C2C(=O)N(C(=O)OC(C)(C)C)c3ccc(F)cc32)CC1 (stereo not drawn) [A027] | 128
CCCCCCCCCC(O)=C1C(=O)N(C(C)=O)c2ccc(Br)cc21 [A026, N-acetyl-5-bromo-3-decanoyl-2-oxyindole] | 8

[ask] Give measured MIC for CCCCCCCCNC(=O)c1c(O)c2ccccc2oc1=O [B020, 3-(octylaminocarbonyl)-4-hydroxycoumarin] (Escherichia coli BE1121 strain).
[reply] 32

[ask] Give measured MIC for CCCCCCCCCCOCC(O)=C1C(=O)N(C(=O)Nc2ccc(OC)cc2)c2ccccc21 [A045] (Escherichia coli BE1121 strain).
[reply] 128

[ask] Give measured MIC for CCCCCCCCCCSCC(O)=C1C(=O)N(C(C)=O)c2ccc(Br)cc21 [A030] (Escherichia coli BE1121 strain).
[reply] 8

[ask] Give measured MIC for CCCCCCCCCCCCNC(=O)c1c(O)c2ccccc2oc1=O [B025] (Escherichia coli BE1121 strain).
[reply] 256

[ask] Give measured MIC for CCCCC1CCC(C(O)=C2C(=O)N(C(C)=O)c3ccccc32)CC1 (stereo not drawn) [A010] (Escherichia coli BE1121 strain).
[reply] 256

[ask] Give measured MIC for CCCCNC(=O)N1C(=O)C(=C(O)C2CCC(CCCC)CC2)c2ccccc21 (stereo not drawn) [A015] (Escherichia coli BE1121 strain).
[reply] 256

[ask] Give measured MIC for CCCCCCCCCCOCC(O)=C1C(=O)N(C(=O)Nc2ccc(OC)cc2)c2ccc(F)cc21 [A047] (Escherichia coli BE1121 strain).
[reply] 128

[ask] Give measured MIC for CCCCC1CCC(C(O)=C2C(=O)N(C(=O)Nc3ccc(Br)cc3)c3ccccc32)CC1 (stereo not drawn) [A040] (Escherichia coli BE1121 strain).
[reply] 256

[ask] Give measured MIC for CCCCC1CCC(C(O)=C2C(=O)N(C(=O)OC(C)(C)C)c3ccccc32)CC1 (stereo not drawn) [A008] (Escherichia coli BE1121 strain).
[reply] 128

[ask] Give measured MIC for CCCCCCCCCC(=O)N1C(=O)/C(=C(\O)c2ccccc2)c2cc(F)ccc21 [A052] (Escherichia coli BE1121 strain).
[reply] 128

[ask] Give measured MIC for CCCCCCCCCC(=O)N[C@@H](C)C(=O)c1c(O)c2ccccc2oc1=O [B011] (Escherichia coli BE1121 strain).
[reply] 256

[ask] Give measured MIC for CCCCCCCCCCOCC(O)=C1C(=O)N(C(=O)Nc2ccc(Br)cc2)c2ccccc21 [A038] (Escherichia coli BE1121 strain).
[reply] 128

[ask] Give measured MIC for CCCCc1ccc(COCC(=O)c2c(O)c3ccccc3oc2=O)cc1 [B024] (Escherichia coli BE1121 strain).
[reply] 2
